Reference source: patent US20140087995A1

Listed below: Ratio hCT/hAmylin binding values for each entry.
Biological target: T1, human calcitonin receptor (human, UniProt P30988 25-474)
T1 construct: whole, on cells; Membranes from stably transfected BHK cells; also called hCTR; hCT
T1 sequence (looked up): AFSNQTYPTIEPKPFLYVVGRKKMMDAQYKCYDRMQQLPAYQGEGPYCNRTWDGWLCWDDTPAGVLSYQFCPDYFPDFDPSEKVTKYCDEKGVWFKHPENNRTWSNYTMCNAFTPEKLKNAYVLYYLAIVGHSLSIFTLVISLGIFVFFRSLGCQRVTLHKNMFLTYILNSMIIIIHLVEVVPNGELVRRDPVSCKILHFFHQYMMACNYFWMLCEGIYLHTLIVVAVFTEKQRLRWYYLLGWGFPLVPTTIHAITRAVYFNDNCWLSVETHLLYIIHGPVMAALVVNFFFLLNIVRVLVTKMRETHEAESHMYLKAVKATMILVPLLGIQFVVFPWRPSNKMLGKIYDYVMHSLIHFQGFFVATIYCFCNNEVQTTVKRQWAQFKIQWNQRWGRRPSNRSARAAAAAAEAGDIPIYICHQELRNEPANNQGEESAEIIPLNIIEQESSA
Assay: ratio of IC50 on human calcitonin receptor to IC50 on human amylin receptor
Numbered stars: 1 amine (or outer) side, 2 acyl side, 3 side chain; on linkers, the order of the positions; unused ones are H or OH. Bridge positions count the residues as written; N and C are the ends. Side chains are listed from the residue outwards. Ends that are not written are not given here. * marks the point of attachment. C20 diacid = O=C(O)CCCCCCCCCCCCCCCCCCC(=O)*; γGlu = O=C(O)[C@H](CCC(=O)[*:2])N[*:1]

{"Binder": "K([γGlu-C20 diacid])CNTATCATQRLAEFLRHSSPNFGAIPSSTNVGPHTY-NH2 (disulfide 2-7)", "Ratio hCT/hAmylin binding": 21.2}
{"Binder": "{C20 diacid-γGlu}-GRCNTATCATQRLAAFLRHSSPNFGAIPSSTNVGPNTY-NH2 (disulfide 3-8)", "Ratio hCT/hAmylin binding": 26.5}
{"Binder": "K([γGlu-γGlu-C20 diacid])CNTATCATQRLAEFLRHSSPNFGAILSSTPVGPETY-NH2 (disulfide 2-7)", "Ratio hCT/hAmylin binding": 22.6}
